Listing of entries alongside the reported activation at 1 µM.
# test.system: PKR wt (Homo sapiens, UniProt P30613)
# Sequence (P30613 whole entry): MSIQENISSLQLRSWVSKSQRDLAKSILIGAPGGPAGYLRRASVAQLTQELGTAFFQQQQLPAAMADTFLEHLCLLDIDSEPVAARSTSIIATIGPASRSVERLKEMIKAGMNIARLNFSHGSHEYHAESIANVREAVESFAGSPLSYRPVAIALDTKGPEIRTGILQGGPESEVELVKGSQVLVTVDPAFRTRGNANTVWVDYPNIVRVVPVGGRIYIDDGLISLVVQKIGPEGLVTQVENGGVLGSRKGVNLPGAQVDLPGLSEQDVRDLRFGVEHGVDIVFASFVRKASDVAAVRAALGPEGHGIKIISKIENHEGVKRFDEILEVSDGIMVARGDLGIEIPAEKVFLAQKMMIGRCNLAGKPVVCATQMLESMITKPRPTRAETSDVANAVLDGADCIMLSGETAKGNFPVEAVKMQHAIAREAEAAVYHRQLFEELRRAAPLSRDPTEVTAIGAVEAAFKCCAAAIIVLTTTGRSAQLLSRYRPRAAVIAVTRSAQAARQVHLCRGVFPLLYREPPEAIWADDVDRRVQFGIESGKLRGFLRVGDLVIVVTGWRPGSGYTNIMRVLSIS
# assay.overview: PKR WT Single Point Percent Activation Assay
# Format: biochemical
# measurement.setup: compound at 1 μM

Cc1cc(C(=O)N2CC(C)(O)C2)ccc1NS(=O)(=O)c1cccc2cccnc12 = 101 to 500%

Looking for the measured activation at 1 µM of `Cc1cc(C(=O)N2CC(Nc3ccccc3)C2)ccc1NS(=O)(=O)c1cccc2cccnc12` , can you help?
101 to 500%

Looking for the measured activation at 1 µM of `C=CCNC(=O)NC1CN(C(=O)c2ccc(NS(=O)(=O)c3cccc4cccnc34)cc2)C1` , can you help?
101 to 500%

* * *

Listing of entries alongside the reported activation at 1 µM.
# test.system: PKR R510Q (Homo sapiens, UniProt P30613, R510Q)
# Sequence (P30613 whole entry R510Q): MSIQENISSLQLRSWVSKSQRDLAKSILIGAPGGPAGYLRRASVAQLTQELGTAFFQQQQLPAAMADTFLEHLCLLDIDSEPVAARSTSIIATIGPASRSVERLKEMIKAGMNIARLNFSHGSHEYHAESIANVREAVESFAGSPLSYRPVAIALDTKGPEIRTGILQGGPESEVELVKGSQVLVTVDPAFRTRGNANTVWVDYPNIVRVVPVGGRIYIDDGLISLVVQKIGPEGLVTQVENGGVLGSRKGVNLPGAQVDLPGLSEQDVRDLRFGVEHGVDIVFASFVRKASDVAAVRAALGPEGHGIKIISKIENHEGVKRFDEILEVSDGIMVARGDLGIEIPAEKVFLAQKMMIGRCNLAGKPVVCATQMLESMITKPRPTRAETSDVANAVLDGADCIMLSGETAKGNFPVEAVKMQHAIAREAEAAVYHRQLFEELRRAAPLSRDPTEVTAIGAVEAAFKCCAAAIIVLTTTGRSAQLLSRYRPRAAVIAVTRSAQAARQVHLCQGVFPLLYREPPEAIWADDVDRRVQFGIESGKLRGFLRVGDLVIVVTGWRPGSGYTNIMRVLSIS
# assay.overview: PKR R510Q Single Point Percent Activation Assay
# Assay type: biochemical
# measurement.setup: compound at 1 μM; read-out: % Act. R510Q

Known activation at 1 µM results, listed for orientation:
COc1ccccc1NC1CN(C(=O)c2ccc(NS(=O)(=O)c3cccc4cccnc34)cc2)C1 = 101 to 500%
O=C(Nc1ccccn1)OC1CN(C(=O)c2ccc(NS(=O)(=O)c3cccc4cccnc34)c(F)c2)C1 = 101 to 500%
COc1cc(C(=O)N2CC(Oc3ccccc3OC)C2)ccc1NS(=O)(=O)c1cccc2cccnc12 = 101 to 500%
O=C(c1ccc(NS(=O)(=O)c2cccc3cccnc23)cc1)N1CC(O)C1 = 101 to 500%

Enter reported activation at 1 µM observed with PKR R510Q (Homo sapiens, UniProt P30613, R510Q) for `Cc1cc(C(=O)N2CC(N(C)Cc3ccccc3)C2)ccc1NS(=O)(=O)c1cccc2cccnc12`
101 to 500%

Enter reported activation at 1 µM observed with PKR R510Q (Homo sapiens, UniProt P30613, R510Q) for `COc1ccccc1NC1CN(C(=O)c2ccc(NS(=O)(=O)c3cccc4cccnc34)c(F)c2)C1`
1 to 100%

Enter reported activation at 1 µM observed with PKR R510Q (Homo sapiens, UniProt P30613, R510Q) for O=C(Nc1ccccn1)OC1CN(C(=O)c2ccc(NS(=O)(=O)c3cccc4cccnc34)cc2)C1 [drawing 65]
101 to 500%

Enter reported activation at 1 µM observed with PKR R510Q (Homo sapiens, UniProt P30613, R510Q) for Cc1cc(C(=O)N2CC(Nc3ccccn3)C2)ccc1NS(=O)(=O)c1cccc2cccnc12 [drawing 55]
1 to 100%

Enter reported activation at 1 µM observed with PKR R510Q (Homo sapiens, UniProt P30613, R510Q) for `C=CCNC(=O)NC1CN(C(=O)c2ccc(NS(=O)(=O)c3cccc4cccnc34)c(OC)c2)C1`
101 to 500%

Enter reported activation at 1 µM observed with PKR R510Q (Homo sapiens, UniProt P30613, R510Q) for `CC1(O)CN(C(=O)c2ccc(NS(=O)(=O)c3cccc4cccnc34)cc2)C1`
101 to 500%

* * *

# test.system: PKR R532W (Homo sapiens, UniProt P30613, R532W)
# Sequence (P30613 whole entry R532W): as the sequence (P30613 whole entry R510Q) above, with Q510R, R532W counted along it
# assay.overview: PKR R532W Single Point Percent Activation Assay
# Type: biochemical
# measurement.setup: compound at 1 μM; read-out: % Act. R532W
property: activation at 1 µM

O=C(c1ccc(NS(=O)(=O)c2cccc3cccnc23)cc1)N1CC(=Cc2ccccc2)C1 = 1 to 100%
COc1cc(NS(=O)(=O)c2cccc3cccnc23)ccc1C(=O)N1CC(O)(Cc2ccccc2)C1 = 101 to 500%
COc1ccccc1NC1CN(C(=O)c2ccc(NS(=O)(=O)c3cccc4cccnc34)cc2)C1 = 1 to 100%
COc1cc(C(=O)N2CC(Oc3ccccc3OC)C2)ccc1NS(=O)(=O)c1cccc2cccnc12 = 101 to 500%
O=C(c1ccc(NS(=O)(=O)c2cccc3cccnc23)cc1)N1CC(Nc2ccccc2)C1 = 1 to 100%

Looking for the measured activation at 1 µM of `COc1cccnc1NC1CN(C(=O)c2ccc(NS(=O)(=O)c3cccc4cccnc34)c(C)c2)C1` , can you help?
101 to 500%

Looking for the measured activation at 1 µM of `O=C(c1ccc(NS(=O)(=O)c2cccc3cccnc23)c(F)c1)N1CC(Oc2ccccc2)C1` , can you help?
101 to 500%

* * *

# test.system: PKR R510Q (Homo sapiens, UniProt P30613, R510Q)
# assay.overview: PKR R510Q Single Point Percent Activation Assay
# Format: biochemical
# measurement.setup: compound at 1 μM; read-out: % Act. R510Q
Listing of entries alongside the reported activation at 1 µM.

Cc1cc(C(=O)N2CC(O)C2)ccc1NS(=O)(=O)c1cccc2cccnc12 = 101 to 500%
Cc1cc(C(=O)N2CC(O)(Cc3ccccc3)C2)ccc1NS(=O)(=O)c1cccc2cccnc12 = 101 to 500%
COC1(Cc2ccccc2)CN(C(=O)c2ccc(NS(=O)(=O)c3cccc4cccnc34)cc2)C1 = 101 to 500%
COc1ccccc1OC1CN(C(=O)c2ccc(NS(=O)(=O)c3cccc4cccnc34)cc2OC)C1 = 1 to 100%
O=C(NC1CN(C(=O)c2ccc(NS(=O)(=O)c3cccc4cccnc34)cc2)C1)c1ccccn1 [drawing 8] = 101 to 500%
O=C(Cc1ccccc1)OC1CN(C(=O)c2ccc(NS(=O)(=O)c3cccc4cccnc34)cc2)C1 = 101 to 500%

Looking for the measured activation at 1 µM of `CC1(O)CN(C(=O)c2ccc(NS(=O)(=O)c3cccc4cccnc34)c(F)c2)C1` , can you help?
101 to 500%

Looking for the measured activation at 1 µM of `O=C(c1ccc(NS(=O)(=O)c2cccc3cccnc23)cc1)N1CC(=Cc2ccccc2)C1` , can you help?
1 to 100%

Looking for the measured activation at 1 µM of `O=C(c1ccc(NS(=O)(=O)c2cccc3cccnc23)cc1)N1CC(Nc2ccccc2)C1` , can you help?
1 to 100%

* * *

# test.system: PKR wt (Homo sapiens, UniProt P30613)
# assay.overview: PKR WT Single Point Percent Activation Assay
# Format: biochemical
# measurement.setup: compound at 1 μM
Listing of entries alongside the reported activation at 1 µM.

O=C(Nc1ccccn1)OC1CN(C(=O)c2ccc(NS(=O)(=O)c3cccc4cccnc34)c(F)c2)C1 = 101 to 500%
O=C(c1ccc(NS(=O)(=O)c2cccc3cccnc23)c(F)c1)N1CC(Oc2ccccc2)C1 = 101 to 500%
Cc1cc(C(=O)N2CC(O)(c3ccccc3)C2)ccc1NS(=O)(=O)c1cccc2cccnc12 = 101 to 500%
Cc1cc(C(=O)N2CC(NC(=O)c3ccccn3)C2)ccc1NS(=O)(=O)c1cccc2cccnc12 [drawing 7] = 101 to 500%

Enter reported activation at 1 µM observed with PKR wt (Homo sapiens, UniProt P30613) for `Cc1cc(C(=O)N2CC(OC(=O)c3ccccn3)C2)ccc1NS(=O)(=O)c1cccc2cccnc12`
1 to 100%

Enter reported activation at 1 µM observed with PKR wt (Homo sapiens, UniProt P30613) for O=C(c1ccc(NS(=O)(=O)c2cccc3cccnc23)cc1)N1CC(O)(Cc2ccccc2)C1 [drawing 5]
101 to 500%

Enter reported activation at 1 µM observed with PKR wt (Homo sapiens, UniProt P30613) for O=C(c1ccc(NS(=O)(=O)c2cccc3cccnc23)cc1)N1CC(Oc2ccccc2)C1 [drawing 4]
101 to 500%

Enter reported activation at 1 µM observed with PKR wt (Homo sapiens, UniProt P30613) for `O=C(c1ccc(NS(=O)(=O)c2cccc3cccnc23)cc1)N1CC(=Cc2ccccc2)C1`
1 to 100%

Enter reported activation at 1 µM observed with PKR wt (Homo sapiens, UniProt P30613) for `O=C(c1ccc(NS(=O)(=O)c2cccc3cccnc23)cc1)N1CC(Nc2ccccc2)C1`
1 to 100%

Enter reported activation at 1 µM observed with PKR wt (Homo sapiens, UniProt P30613) for `COc1cc(NS(=O)(=O)c2cccc3cccnc23)ccc1C(=O)N1CC(O)(Cc2ccccc2)C1`
101 to 500%

* * *

# test.system: PKR T384W (Homo sapiens, UniProt P30613)
# Sequence (P30613 whole entry T384M): as the sequence (P30613 whole entry R510Q) above, with T384M, Q510R counted along it
# assay.overview: PKR Mutant Assay, AC50 (T384W)
# Assay type: biochemical
Listing of entries alongside the reported AC50.

Known AC50 results, listed for orientation:
O=C(c1ccc(NS(=O)(=O)c2cccc3cccnc23)c(F)c1)N1CC(Nc2ccccc2)C1 [drawing 88] = > 500 nM
O=C(c1ccc(NS(=O)(=O)c2cccc3cccnc23)cc1)N1CC(OCc2ccccc2)C1 [drawing 78] = 101 to 500 nM
O=C(c1ccc(NS(=O)(=O)c2cccc3cccnc23)cc1)N1CC(O)(Cc2ccccc2)C1 [drawing 71] = < 100 nM

Okay, now this molecule:
Looking for the measured AC50 of Cc1cc(C(=O)N2CC(NC(=O)c3ccccn3)C2)ccc1NS(=O)(=O)c1cccc2cccnc12 [drawing 73] , can you help?
101 to 500 nM
